Recorded log10 IC50 by entry
# assay target: CDK1/Cyclin B1 (Homo sapiens)
# Sequence (P06493 whole entry): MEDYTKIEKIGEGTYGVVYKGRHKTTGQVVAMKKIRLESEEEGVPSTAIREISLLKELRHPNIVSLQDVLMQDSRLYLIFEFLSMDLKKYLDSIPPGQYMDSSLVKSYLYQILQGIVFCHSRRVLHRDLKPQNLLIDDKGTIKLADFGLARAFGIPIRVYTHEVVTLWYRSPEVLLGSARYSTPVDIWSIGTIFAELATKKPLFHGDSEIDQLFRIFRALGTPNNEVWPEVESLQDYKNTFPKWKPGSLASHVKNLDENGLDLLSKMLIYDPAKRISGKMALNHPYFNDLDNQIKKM
# Sequence (P14635 whole entry partner): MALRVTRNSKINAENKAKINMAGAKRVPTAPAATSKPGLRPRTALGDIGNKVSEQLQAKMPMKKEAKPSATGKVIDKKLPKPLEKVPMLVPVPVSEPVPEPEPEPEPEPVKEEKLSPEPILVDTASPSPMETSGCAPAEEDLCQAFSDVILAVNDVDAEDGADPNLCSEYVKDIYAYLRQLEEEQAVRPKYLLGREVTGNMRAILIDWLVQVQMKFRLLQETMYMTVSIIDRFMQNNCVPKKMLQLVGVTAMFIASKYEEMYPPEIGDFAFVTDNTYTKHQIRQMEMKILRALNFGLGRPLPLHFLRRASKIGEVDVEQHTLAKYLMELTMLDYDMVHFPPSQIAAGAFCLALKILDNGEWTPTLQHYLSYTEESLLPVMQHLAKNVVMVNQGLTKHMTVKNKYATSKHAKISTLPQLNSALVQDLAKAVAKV
# test name: CDK1/Cyclin B1 Biochemical Assay (TR-FRET), 0.015 mM ATP
# condition label: 0.15 μM Rb (Ser780)-biotin substrate, pH7.0, 60 min preincubation, 120 min reaction, room temperature
Log10 applied to IC50; unit prior to transform: nM.

# count of solved cases: 3
compound	log10 IC50
CCCNC(=O)O[C@H]1CC[C@@H](c2cc(Nc3ccc4c(c3F)C(C)NS4(=O)=O)n[nH]2)C1 (single isomer, unassigned) [Example 53b]	1.96
CC(C)NC(=O)O[C@H]1CC[C@@H](c2cc(Nc3ccc4c(c3F)CN(CC3CCN(C)C3=O)S4(=O)=O)n[nH]2)C1 (relative stereo) [Example 111]	2.35
CN1c2ccc(Nc3cc([C@@H]4CC[C@H](OC(=O)NCC5COC5)C4)[nH]n3)cc2CS1(=O)=O (relative stereo) [Example 237]	2.64

Name the recorded log10 IC50 of the compound listed here: CC(C)NC(=O)OC1CC(c2cc(Nc3ccc4c(c3F)CNS4(=O)=O)n[nH]2)C1 (centres unmarked) [Example 137]
2.57

Tell me log10 IC50 reported for [2H]C([2H])([2H])N1Cc2c(ccc(Nc3cc([C@@H]4CC[C@H](OC(=O)NCCC)C4)[nH]n3)c2F)S1(=O)=O (relative stereo) [Example 130]
2.38

Please look at this compound and report its log10 IC50: COCC1(NC(=O)O[C@H]2CC[C@@H](c3cc(Nc4ccc5c(c4F)CNS5(=O)=O)n[nH]3)C2)CC1 (racemic) [Example 158]
2.09

Please report log10 IC50 for the following compound: CC(C)NC(=O)O[C@H]1CO[C@@H](c2cc(Nc3ccc4c(c3F)CNS4(=O)=O)n[nH]2)C1 (relative stereo) [Example 378]
2.70

Return reported log10 IC50. Input compound: CC(C)NC(=O)O[C@H]1CC[C@@H](c2cc(Nc3ccc4c(c3F)CN(CC3CCNC3=O)S4(=O)=O)n[nH]2)C1 (relative stereo) [Example 110]
2.35

Give the measured log10 IC50 for COc1c(Nc2cc([C@@H]3CC[C@H](OC(=O)NC(C)C)C3)[nH]n2)ccc2c1CNS2(=O)=O (relative stereo) [Example 10]
3.48

// fetch log10 IC50 given entry CC1(NC(=O)O[C@H]2CC[C@@H](c3cc(Nc4ccc5c(c4F)CN(C4CC4)S5(=O)=O)n[nH]3)C2)CC1 (racemic) [Example 119]
2.16
